SYSTEM: human TLR8 (Homo sapiens)
PROCEDURE_SUMMARY: TLR8 inhibition reporter assay (HEK-Blue, SEAP)
CONDITION_LABEL: HEK-Blue cells overexpressing human TLR8, ligand R848 14.25 μM, 22 hour incubation
ENDPOINT_LABEL: IC50 (µM)
Number in µM, nothing else.

Worked cases, IC50 given:
{"COMPOUND": "Cc1cc(-c2ccc(CN3CCC(N4CCCC4)CC3)cc2)nc2c1nc(-c1ccc(S(C)(=O)=O)cc1)n2C1CC1 [Example 2]", "ENDPOINT_LABEL": "IC50", "MEASUREMENT_UNIT": "µM", "OBSERVED_VALUE": 31}
{"COMPOUND": "Cc1cc(-c2ccc(CN3CC4(C3)CN(C3CCC3)C4)cc2)nc2c1nc(-c1ccc(S(C)(=O)=O)cc1)n2C1CC1 [Example 1]", "ENDPOINT_LABEL": "IC50", "MEASUREMENT_UNIT": "µM", "OBSERVED_VALUE": 27}

Task: Give its IC50 value. Item: CC(C)N1CCN(c2ccc(-c3cnc4nc(-c5ccc(S(C)(=O)=O)cc5)n(C5CC5)c4c3)cc2)CC1 [Example 51]
Result: 4.2

----------
SYSTEM: human TLR7 (Homo sapiens)
Construct: host or cells: HEK-Blue cells
Sequence (Q9NYK1 27-1049): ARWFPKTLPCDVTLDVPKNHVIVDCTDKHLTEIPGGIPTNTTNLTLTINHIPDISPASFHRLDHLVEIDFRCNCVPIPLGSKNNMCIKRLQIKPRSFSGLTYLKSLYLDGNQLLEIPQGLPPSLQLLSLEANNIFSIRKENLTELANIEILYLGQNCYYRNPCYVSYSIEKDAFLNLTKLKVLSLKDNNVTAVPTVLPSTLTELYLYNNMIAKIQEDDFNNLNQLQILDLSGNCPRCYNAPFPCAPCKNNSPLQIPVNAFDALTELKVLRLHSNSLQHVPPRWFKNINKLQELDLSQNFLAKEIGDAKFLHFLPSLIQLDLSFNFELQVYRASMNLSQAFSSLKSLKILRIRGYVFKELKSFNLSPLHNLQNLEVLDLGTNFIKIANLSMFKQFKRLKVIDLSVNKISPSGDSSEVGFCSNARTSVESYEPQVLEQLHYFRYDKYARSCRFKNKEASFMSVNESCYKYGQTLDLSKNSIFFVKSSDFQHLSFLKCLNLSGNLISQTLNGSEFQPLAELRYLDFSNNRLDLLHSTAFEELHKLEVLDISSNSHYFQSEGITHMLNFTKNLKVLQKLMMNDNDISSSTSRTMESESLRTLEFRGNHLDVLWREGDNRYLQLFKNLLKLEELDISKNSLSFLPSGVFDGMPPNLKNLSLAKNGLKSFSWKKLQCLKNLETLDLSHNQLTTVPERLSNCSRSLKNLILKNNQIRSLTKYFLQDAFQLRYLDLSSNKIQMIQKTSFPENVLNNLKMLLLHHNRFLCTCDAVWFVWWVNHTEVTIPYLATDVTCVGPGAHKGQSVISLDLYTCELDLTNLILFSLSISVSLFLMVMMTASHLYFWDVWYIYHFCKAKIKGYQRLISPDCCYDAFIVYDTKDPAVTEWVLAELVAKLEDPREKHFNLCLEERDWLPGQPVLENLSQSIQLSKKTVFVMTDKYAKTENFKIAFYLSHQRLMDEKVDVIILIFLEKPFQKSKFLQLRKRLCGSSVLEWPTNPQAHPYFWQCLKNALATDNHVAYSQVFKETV
PROCEDURE_SUMMARY: TLR7 inhibition reporter assay (HEK-Blue, SEAP)
Type: cell-based
CONDITION_LABEL: HEK-Blue cells overexpressing human TLR7, ligand gardiquimod 2.5 μM, 22 hour incubation
ENDPOINT_LABEL: pIC50
pIC50 is a log-scale quantity: -log10 of the concentration expressed in molar.

Worked cases, pIC50 given:
{"COMPOUND": "Cc1cc(C2CCN(C3CC4CCC(C3)N4C3CCOCC3)CC2)nc2c1nc(-c1ccc(S(C)(=O)=O)cc1)n2C (single isomer, unassigned) [Example 34]", "SYSTEM": "human TLR7 (Homo sapiens)", "pIC50": 5.24}
{"COMPOUND": "COc1ccc(-c2nc3c(C)cc(C4CCN([C@H]5C[C@@H]6CN(C(C)C)C[C@@H]6C5)CC4)nc3n2C)cc1OC", "SYSTEM": "human TLR7 (Homo sapiens)", "pIC50": 6.00}
{"COMPOUND": "COc1ccc(-c2nc3c(C)cc(-c4ccc(N5CC6(CN(CC(C)C)C6)C5)cc4)nc3n2C)cc1OC", "SYSTEM": "human TLR7 (Homo sapiens)", "pIC50": 5.20}

Task: Give its pIC50 value. Item: COc1ccc(-c2nc3c(C)cc(-c4ccc(N5CCC6(CC5)CN(C(C)C)C6)cc4)nc3n2C)cc1OC
Result: 5.80

Task: Give its pIC50 value. Item: CC(C)N1CCC(N2CCC(c3ccc4nc(-c5ccc(S(C)(=O)=O)cc5)n(C)c4n3)CC2)CC1
Result: 4.74

Task: Give its pIC50 value. Item: COc1ccc(-c2nc3ccc(-c4ccc(N5CCN(C(C)C)CC5)cc4)nc3n2C)cc1OC
Result: 5.92

----------
SYSTEM: human TLR8 (Homo sapiens)
PROCEDURE_SUMMARY: TLR8 inhibition reporter assay (HEK-Blue, SEAP)
CONDITION_LABEL: HEK-Blue cells overexpressing human TLR8, ligand R848 14.25 μM, 22 hour incubation
Entries and their IC50

{"COMPOUND": "CC(C)N1CCN(c2ccc(-c3ccc4nc(-c5ccc(S(C)(=O)=O)cc5)n(C)c4n3)cc2)CC1 [Example 53]", "IC50": "> 50 µM"}
{"COMPOUND": "COc1ccc(-c2nc3c(C)cc(-c4ccc(N5CCC6(CC5)CN(CC(C)C)C6)cc4)nc3n2C)cc1OC [Example 60]", "IC50": "3.6 µM"}
{"COMPOUND": "Cc1cc(-c2ccc(N3CCN(CC(C)C)CC3)cc2)nc2c1nc(-c1ccc(S(C)(=O)=O)cc1)n2C [Example 8]", "IC50": "> 50 µM"}
{"COMPOUND": "CS(=O)(=O)c1ccc(-c2nc3ccc(-c4ccc(N5CCN(CCN6CCOCC6)CC5)cc4)nc3n2C2CC2)cc1 [Example 57]", "IC50": "> 50 µM"}

Task: Give its IC50 value. Item: Cc1cc(C2CCN(C3CC4CCC(C3)N4C(C)C)CC2)nc2c1nc(-c1ccc(S(C)(=O)=O)cc1)n2C (single isomer, unassigned) [Example 26]
Result: > 50 µM

Task: Give its IC50 value. Item: COCCN1C[C@H]2C[C@H](N3CCC(c4cc(C)c5nc(-c6ccc(OC)c(OC)c6)n(C)c5n4)CC3)C[C@H]2C1 [Example 41]
Result: > 50 µM

Task: Give its IC50 value. Item: CC(C)CN1CC2(CCN(c3ccc(-c4ccc5nc(-c6ccc(S(C)(=O)=O)cc6)n(C)c5n4)cc3)CC2)C1 [Example 62]
Result: 6.1 µM

Task: Give its IC50 value. Item: CC(C)N1CCC(N2CCC(c3cnc4nc(-c5ccc(S(C)(=O)=O)cc5)n(C)c4c3)CC2)CC1 [Example 14]
Result: > 50 µM

Task: Give its IC50 value. Item: COc1ccc(-c2nc3c(C)cc(C4CCN([C@H]5C[C@@H]6CN(C(C)C)C[C@@H]6C5)CC4)nc3n2C)cc1OC [Example 36]
Result: > 50 µM

Task: Give its IC50 value. Item: Cn1c(-c2ccc(S(C)(=O)=O)cc2)nc2ccc(-c3ccc(N4CCC5(CC4)CN(CC(C)(C)O)C5)cc3)nc21 [Example 63]
Result: 44 µM

Task: Give its IC50 value. Item: COCCN1C[C@H]2C[C@H](N3CCC(c4cc(C)c5nc(-c6cc(OC)c7ncnn7c6)n(C)c5n4)CC3)C[C@H]2C1 [Example 46]
Result: > 50 µM

----------
SYSTEM: human TLR8 (Homo sapiens, UniProt Q9NR97)
Sequence (Q9NR97 27-1041): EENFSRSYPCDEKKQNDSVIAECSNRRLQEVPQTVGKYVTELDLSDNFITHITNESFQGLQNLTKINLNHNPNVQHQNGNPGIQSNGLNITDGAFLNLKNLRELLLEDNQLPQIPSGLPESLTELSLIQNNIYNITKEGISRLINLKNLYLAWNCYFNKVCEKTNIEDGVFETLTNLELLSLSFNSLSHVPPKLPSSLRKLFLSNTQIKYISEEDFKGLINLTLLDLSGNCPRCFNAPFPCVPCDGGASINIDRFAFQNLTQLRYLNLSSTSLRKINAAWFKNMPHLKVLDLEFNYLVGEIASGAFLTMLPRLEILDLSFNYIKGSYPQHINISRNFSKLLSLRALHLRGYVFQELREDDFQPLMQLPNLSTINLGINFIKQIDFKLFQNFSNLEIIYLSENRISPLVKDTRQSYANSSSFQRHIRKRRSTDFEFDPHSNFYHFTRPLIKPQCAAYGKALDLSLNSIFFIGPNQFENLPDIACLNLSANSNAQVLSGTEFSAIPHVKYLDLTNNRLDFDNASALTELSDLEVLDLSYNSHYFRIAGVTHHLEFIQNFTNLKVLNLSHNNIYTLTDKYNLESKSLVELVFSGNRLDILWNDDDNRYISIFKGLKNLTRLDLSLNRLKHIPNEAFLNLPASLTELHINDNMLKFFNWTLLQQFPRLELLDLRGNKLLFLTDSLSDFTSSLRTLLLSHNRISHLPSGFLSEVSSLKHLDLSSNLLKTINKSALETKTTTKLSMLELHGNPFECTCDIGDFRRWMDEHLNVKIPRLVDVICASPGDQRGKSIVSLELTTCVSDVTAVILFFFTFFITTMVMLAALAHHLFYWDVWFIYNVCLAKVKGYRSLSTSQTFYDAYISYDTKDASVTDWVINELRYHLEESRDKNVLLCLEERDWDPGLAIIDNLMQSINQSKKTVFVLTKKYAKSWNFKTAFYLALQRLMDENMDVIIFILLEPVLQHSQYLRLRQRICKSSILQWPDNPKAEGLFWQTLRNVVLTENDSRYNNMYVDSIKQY
PROCEDURE_SUMMARY: TLR8 inhibition reporter assay (HEK-Blue, SEAP)
CONDITION_LABEL: HEK-Blue cells overexpressing human TLR8, ligand R848 14.25 μM, 22 hour incubation
pIC50: −log10 of the molar value.
# label = fulfilled if pIC50 >= 5 else not fulfilled

{"COMPOUND": "CC(C)N1CCN(c2ccc(-c3cnc4nc(-c5ccc(S(C)(=O)=O)cc5)n(C)c4c3)cc2)CC1", "LABEL_CLASS": "fulfilled"}
{"COMPOUND": "COc1ccc(-c2nc3c(C)cc(-c4ccc(N5CCN(C(C)C)CC5)cc4)nc3n2C)cc1OC", "LABEL_CLASS": "not fulfilled"}
{"COMPOUND": "COc1ccc(-c2nc3c(C)cc(C4CCN([C@H]5C[C@@H]6CN(C7CCC7)C[C@@H]6C5)CC4)nc3n2C)cc1OC", "LABEL_CLASS": "not fulfilled"}
{"COMPOUND": "Cc1cc(C2CCN(C3CC4CCC(C3)N4C3CCC3)CC2)nc2c1nc(-c1ccc(S(C)(=O)=O)cc1)n2C (centres unmarked) [Example 32]", "LABEL_CLASS": "not fulfilled"}
{"COMPOUND": "Cc1cc(C2CCN(C3CCN(CC(C)C)CC3)CC2)nc2c1nc(-c1ccc(S(C)(=O)=O)cc1)n2C", "LABEL_CLASS": "not fulfilled"}
{"COMPOUND": "COc1cc(-c2nc3c(C)cc(C4CCN([C@H]5C[C@@H]6CN(CC7CC7)C[C@@H]6C5)CC4)nc3n2C)cn2ncnc12", "LABEL_CLASS": "not fulfilled"}

Task: pIC50 >= 5 for Cc1cc(-c2ccc(CN3CC4(C3)CN(C(C)C)C4)cc2)nc2c1nc(-c1ccc(S(C)(=O)=O)cc1)n2C1CC1 ?
Result: not fulfilled

Task: pIC50 >= 5 for CC(C)CN1CCC(N2CCC(c3ccc4nc(-c5ccc(S(C)(=O)=O)cc5)n(C)c4n3)CC2)CC1 ?
Result: not fulfilled

Task: pIC50 >= 5 for Cc1cc(-c2ccc(CN3CC4(C3)CN(C3CCOCC3)C4)cc2)nc2c1nc(-c1ccc(S(C)(=O)=O)cc1)n2C1CC1 ?
Result: fulfilled
